Target desc: T1, Bcl-2 (residues 1-207) (UniProt P10415 1-207)
T1 construct: Bcl-2, residues 1-207; Cloned in pET-28a(+) between NdeI and XhoI; buffer-exchanged to HBS-EP
T1 sequence (P10415 1-207): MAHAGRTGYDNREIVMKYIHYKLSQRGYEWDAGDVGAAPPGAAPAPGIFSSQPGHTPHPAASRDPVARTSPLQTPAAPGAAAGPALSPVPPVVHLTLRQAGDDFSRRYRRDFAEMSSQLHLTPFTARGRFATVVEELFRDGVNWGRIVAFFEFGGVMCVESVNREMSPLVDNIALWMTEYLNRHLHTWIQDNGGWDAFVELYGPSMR
Assay remarks: SPR; Bfk BH3 peptide amine-coupled to a CM5 chip (10 mM sodium acetate pH 5.0); Bcl-2, Bcl-XL (3.13-200 nM) and Bak (1.25-40.0 uM) injected in HBS-EP at 30 uL/min for 90 s; Biacore T200; KD by steady-state affinity analysis
Recorded conditions: both partners purified
Readout name: Kd (nM)
Write the answer as a number in nM, unit excluded.

stdin: State its Kd: SFDVAIIAGRLRMLGDQFNGE (BH3 peptide of human Bfk (BCL2L15), residues 47-67; also called Bfk BH3 peptide; Bfk BH3; source: synthetic peptide) [synthetic BH3 peptide derived from Bfk (residues 47-67)]
stdout: 17.4
